molecular target: EGFR (human); details: sk-br-3
measurement-type: IC50 (nM)

P: CN(C)c1cc2c(Nc3cccc(Br)c3)ncnc2cn1
Q: Nc1ccc2ncnc(Nc3cccc(Br)c3)c2n1
Input: Just tell me: smaller IC50 value, P or Q ? Write the label of whichever entry you select.
Output: P
(P: 39 nM, Q: 2660 nM)

====

target: EGFR (human); settings: a431
measurement-type: IC50 (µM)
Enter your answer as a number in µM; do not include the unit.

Input: # query: IC50 of entry NNc1ncc2c(NCc3ccccc3)ncnc2n1
Output: 0.124

====

biological target: EGFR (human); conditions: sk-br-3
measurement-type: IC50 (nM)

molecule-smiles	IC50 (nM)
Nc1cc2ncnc(Nc3cccc(Br)c3)c2cn1	800
CN(C)c1ccc2ncnc(Nc3cccc(Br)c3)c2n1	71

1: CNc1ccc2ncnc(Nc3cccc(Br)c3)c2n1
2: Nc1cc2ncnc(Nc3cccc([N+](=O)[O-])c3)c2cn1
Input: Which gives the smaller IC50 number: 1 or 2 ? Write down the label attached to your selection.
Output: 1

====

target: EGFR (human) (UniProt P00533); settings: sk-br-3
Sequence (P00533 whole entry, looked up): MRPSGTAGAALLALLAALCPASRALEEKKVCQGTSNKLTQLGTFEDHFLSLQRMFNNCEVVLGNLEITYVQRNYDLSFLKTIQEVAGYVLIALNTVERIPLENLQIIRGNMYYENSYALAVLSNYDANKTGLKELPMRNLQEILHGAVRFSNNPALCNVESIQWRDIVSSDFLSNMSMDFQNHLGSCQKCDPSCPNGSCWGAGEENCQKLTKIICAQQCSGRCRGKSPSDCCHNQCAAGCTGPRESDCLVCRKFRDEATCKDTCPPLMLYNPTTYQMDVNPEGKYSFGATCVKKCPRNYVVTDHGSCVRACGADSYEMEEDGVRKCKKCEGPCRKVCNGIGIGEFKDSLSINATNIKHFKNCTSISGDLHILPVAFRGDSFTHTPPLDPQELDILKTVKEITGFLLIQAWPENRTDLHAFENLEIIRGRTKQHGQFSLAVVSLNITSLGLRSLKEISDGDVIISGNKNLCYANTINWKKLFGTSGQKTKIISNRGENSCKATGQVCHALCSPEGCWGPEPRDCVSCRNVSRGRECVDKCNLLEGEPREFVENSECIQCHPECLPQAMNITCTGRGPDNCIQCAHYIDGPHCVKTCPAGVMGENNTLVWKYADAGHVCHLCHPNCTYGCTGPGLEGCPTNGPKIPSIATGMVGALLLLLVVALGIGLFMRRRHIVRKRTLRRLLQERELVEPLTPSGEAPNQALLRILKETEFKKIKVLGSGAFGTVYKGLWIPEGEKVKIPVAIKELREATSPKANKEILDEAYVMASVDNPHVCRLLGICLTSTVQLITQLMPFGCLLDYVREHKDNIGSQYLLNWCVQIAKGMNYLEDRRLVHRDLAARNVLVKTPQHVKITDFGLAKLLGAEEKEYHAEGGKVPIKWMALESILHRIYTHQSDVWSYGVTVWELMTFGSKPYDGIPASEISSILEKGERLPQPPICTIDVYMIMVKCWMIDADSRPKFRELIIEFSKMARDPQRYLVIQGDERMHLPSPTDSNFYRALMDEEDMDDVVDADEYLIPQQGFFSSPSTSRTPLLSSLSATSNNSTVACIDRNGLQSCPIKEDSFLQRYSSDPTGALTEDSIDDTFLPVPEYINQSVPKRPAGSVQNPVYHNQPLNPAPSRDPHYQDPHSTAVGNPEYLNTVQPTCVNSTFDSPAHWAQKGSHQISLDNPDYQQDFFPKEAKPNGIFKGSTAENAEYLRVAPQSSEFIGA
pIC50: −log10 of the molar value.
measurement-type: pIC50

molecule-smiles	pIC50
Fc1ccc2ncnc(Nc3cccc(Br)c3)c2n1	< 5.00
c1ccc(CNc2ncnc3[nH]ccc23)cc1	< 6.00

Next molecule, pIC50 to be filled in.
Input: Consider the molecule CNc1cc2c(Nc3cccc(Br)c3)ncnc2cn1 and give its measured pIC50.
Output: > 8.00
